Entries and their measured IC50 follow.
System: HeLa
Experiment: Antiproliferative activity against human HeLa cells by MTT assay
Type: functional, cell-based
Quantity measured: IC50 (µM)

molecule=O=C(/C=C/C=C/c1ccc2c(c1)OCO2)N1CCCCC1 unit_annotation=µM test_result=44.4
molecule=O=c1[nH]cc(F)c(=O)[nH]1 unit_annotation=µM test_result=44.6
molecule=Cc1cn(-c2cc(NC(=O)/C=C/C=C/c3ccc4c(c3)OCO4)cc(C(F)(F)F)c2)cn1 unit_annotation=µM test_result=10.2
molecule="O=C1CCC(N2Cc3c(NC(=O)c4ccc5c(c4)OCO5)cccc3C2=O)C(=O)N1 (centres undefined)" unit_annotation=µM test_result=11.5
molecule="COc1cc2c(cc1OC)C(=O)C(CC1CCN(C(=O)c3ccc4c(c3)OC(F)(F)O4)CC1)C2 (centres undefined)" unit_annotation=µM test_result=38
molecule=Cc1cn(-c2cc(NC(=O)Cc3ccc4c(c3)OCO4)cc(C(F)(F)F)c2)cn1 unit_annotation=µM test_result=7.81
molecule="O=C(/C=C/C=C/c1ccc2c(c1)OCO2)Nc1cccc2c1CN(C1CCC(=O)NC1=O)C2=O (centres undefined)" unit_annotation=µM test_result=50.4
molecule="O=C(/C=C/c1ccc2c(c1)OCO2)Nc1cccc2c1CN(C1CCC(=O)NC1=O)C2=O (centres undefined)" unit_annotation=µM test_result=37.3
molecule="O=C1CCC(N2Cc3c(NC(=O)Cc4ccc5c(c4)OCO5)cccc3C2=O)C(=O)N1 (centres undefined)" unit_annotation=µM test_result=63.2

====

Entries and their measured pIC50 follow.
System: MDA-MB-231
Experiment: Antiproliferative activity against human MDA-MB-231 cells by MTT assay
Format: functional, cell-based
pIC50: −log10 of the molar value.
Quantity measured: pIC50

molecule="COc1cc2c(cc1OC)C(=O)C(CC1CCN(C(=O)/C=C/c3cc4c(cc3Br)OCO4)CC1)C2 (centres undefined)" test_result=4.82
molecule=Cc1cn(-c2cc(NC(=O)/C=C/c3ccc4c(c3)OCO4)cc(C(F)(F)F)c2)cn1 test_result=4.54
molecule="O=C1CCC(N2Cc3c(NC(=O)c4ccc5c(c4)OCO5)cccc3C2=O)C(=O)N1 (centres undefined)" test_result=3.55
molecule=Cc1cn(-c2cc(NC(=O)/C=C/C=C/c3ccc4c(c3)OCO4)cc(C(F)(F)F)c2)cn1 test_result=4.64

====

System: HeLa
Assay: Antiproliferative activity against human HeLa cells by MTT assay
Assay type: functional, cell-based
pIC50: −log10 of the molar value.
Quantity measured: pIC50

molecule="COc1cc2c(cc1OC)C(=O)C(CC1CCN(C(=O)c3ccc4c(c3)OCO4)CC1)C2 (stereo unspecified)" tested_system=HeLa quantity_measured=pIC50 test_result=4.60
molecule="COc1cc2c(cc1OC)C(=O)C(CC1CCN(C(=O)/C=C/c3ccc4c(c3)OCO4)CC1)C2 (stereo unspecified)" tested_system=HeLa quantity_measured=pIC50 test_result=4.73
molecule="COc1cc2c(cc1OC)C(=O)C(CC1CCN(C(=O)/C=C/C=C/c3ccc4c(c3)OCO4)CC1)C2 (stereo unspecified)" tested_system=HeLa quantity_measured=pIC50 test_result=4.49
molecule=Cc1cn(-c2cc(NC(=O)/C=C/c3ccc4c(c3)OCO4)cc(C(F)(F)F)c2)cn1 tested_system=HeLa quantity_measured=pIC50 test_result=5.06
molecule=Cc1cn(-c2cc(NC(=O)c3ccc4c(c3)OCO4)cc(C(F)(F)F)c2)cn1 tested_system=HeLa quantity_measured=pIC50 test_result=4.30
molecule="COc1cc2c(cc1OC)C(=O)C(CC1CCN(C(=O)/C=C/c3cc4c(cc3Br)OCO4)CC1)C2 (stereo unspecified)" tested_system=HeLa quantity_measured=pIC50 test_result=4.53

====

Test system: MDA-MB-231
Experiment: Antiproliferative activity against human MDA-MB-231 cells by MTT assay
Assay type: functional, cell-based
pIC50: −log10 of the molar value.
Rule: t for pIC50 not less than 4, f for anything less.

compound="O=C(/C=C/C=C/c1ccc2c(c1)OCO2)N1CCCCC1 [PIPERINE]" answer_label=f
compound=Cc1cn(-c2cc(NC(=O)c3ccc4c(c3)OCO4)cc(C(F)(F)F)c2)cn1 answer_label=f
compound=Cc1cn(-c2cc(NC(=O)Cc3ccc4c(c3)OCO4)cc(C(F)(F)F)c2)cn1 answer_label=t
compound="O=c1[nH]cc(F)c(=O)[nH]1 [FLUOROURACIL]" answer_label=t

====

Assay: Cytotoxicity against human HEK293T cells by MTT assay
Assay type: toxicity, cell-based, HEK-293T
Settings: human, HEK293T cells
Quantity measured: IC50 (µM)

compound="COc1cc2c(cc1OC)C(=O)C(CC1CCN(C(=O)c3ccc4c(c3)OCO4)CC1)C2 (stereo unspecified)" quantity_measured=IC50 unit_annotation=µM test_result=405
compound=O=c1[nH]cc(F)c(=O)[nH]1 quantity_measured=IC50 unit_annotation=µM test_result=3.21
compound="O=C(/C=C/C=C/c1ccc2c(c1)OCO2)Nc1cccc2c1CN(C1CCC(=O)NC1=O)C2=O (stereo unspecified)" quantity_measured=IC50 unit_annotation=µM test_result=81.5
compound=Cc1cn(-c2cc(NC(=O)/C=C/C=C/c3ccc4c(c3)OCO4)cc(C(F)(F)F)c2)cn1 quantity_measured=IC50 unit_annotation=µM test_result=104
compound=Cc1cn(-c2cc(NC(=O)Cc3ccc4c(c3)OCO4)cc(C(F)(F)F)c2)cn1 quantity_measured=IC50 unit_annotation=µM test_result=18.9
compound=Cc1cn(-c2cc(NC(=O)/C=C/c3ccc4c(c3)OCO4)cc(C(F)(F)F)c2)cn1 quantity_measured=IC50 unit_annotation=µM test_result=18.7
compound="COc1cc2c(cc1OC)C(=O)C(CC1CCN(C(=O)/C=C/c3ccc4c(c3)OCO4)CC1)C2 (stereo unspecified)" quantity_measured=IC50 unit_annotation=µM test_result=8.03
compound=O=C(/C=C/C=C/c1ccc2c(c1)OCO2)N1CCCCC1 quantity_measured=IC50 unit_annotation=µM test_result=42.8
compound="O=C1CCC(N2Cc3c(NC(=O)c4ccc5c(c4)OCO5)cccc3C2=O)C(=O)N1 (stereo unspecified)" quantity_measured=IC50 unit_annotation=µM test_result=625
compound=Cc1cn(-c2cc(NC(=O)c3ccc4c(c3)OCO4)cc(C(F)(F)F)c2)cn1 quantity_measured=IC50 unit_annotation=µM test_result=479
compound="COc1cc2c(cc1OC)C(=O)C(CC1CCN(C(=O)/C=C/C=C/c3ccc4c(c3)OCO4)CC1)C2 (stereo unspecified)" quantity_measured=IC50 unit_annotation=µM test_result=61.9

====

Test system: HEK-293T
Assay: Cytotoxicity against human HEK293T cells by MTT assay
Assay type: toxicity, cell-based
Conditions: hek-293t
pIC50: −log10 of the molar value.
Entries and their measured pIC50 follow.
Quantity measured: pIC50

compound="O=C1CCC(N2Cc3c(NC(=O)Cc4ccc5c(c4)OCO5)cccc3C2=O)C(=O)N1 (configuration not stated)" test_result=2.84
compound="O=C(/C=C/c1ccc2c(c1)OCO2)Nc1cccc2c1CN(C1CCC(=O)NC1=O)C2=O (configuration not stated)" test_result=2.84

====

System: MDA-MB-231
Test: Antiproliferative activity against human MDA-MB-231 cells by MTT assay
Format: functional, cell-based
Quantity measured: IC50 (µM)

compound="COc1cc2c(cc1OC)C(=O)C(CC1CCN(C(=O)c3ccc4c(c3)OC(F)(F)O4)CC1)C2 (stereo not given)" tested_system=MDA-MB-231 quantity_measured=IC50 test_result=81.3
compound="COc1cc2c(cc1OC)C(=O)C(CC1CCN(C(=O)/C=C/C=C/c3ccc4c(c3)OCO4)CC1)C2 (stereo not given)" tested_system=MDA-MB-231 quantity_measured=IC50 test_result=123
compound="O=C(/C=C/C=C/c1ccc2c(c1)OCO2)Nc1cccc2c1CN(C1CCC(=O)NC1=O)C2=O (stereo not given)" tested_system=MDA-MB-231 quantity_measured=IC50 test_result=80.7
compound="COc1cc2c(cc1OC)C(=O)C(CC1CCN(C(=O)/C=C/c3ccc4c(c3)OCO4)CC1)C2 (stereo not given)" tested_system=MDA-MB-231 quantity_measured=IC50 test_result=105
compound="COc1cc2c(cc1OC)C(=O)C(CC1CCN(C(=O)c3ccc4c(c3)OCO4)CC1)C2 (stereo not given)" tested_system=MDA-MB-231 quantity_measured=IC50 test_result=80.6
